MIC reference
System: Burkholderia pseudomallei
Assay: Antibacterial activity against Burkholderia pseudomallei BPS2020IRBA003 under muller hinton medium by CLSI protocol based microdilution method
Assay type: functional
Recorded Metric: MIC (µg/mL)

{"Molecule": "CC(OC(=O)c1cccc(O)c1O)OC(=O)N1CCN(c2cc3c(cc2F)c(=O)c(C(=O)O)cn3C2CC2)CC1 (configuration not stated)", "Measure Unit": "µg/mL", "Inequality Symbol": "=", "Value": 32}
{"Molecule": "CC(C)(O/N=C(\\C(=O)N[C@@H]1C(=O)N2C(C(=O)[O-])=C(C[n+]3ccccc3)CS[C@H]12)c1csc(N)n1)C(=O)O [CEFTAZIDIME]", "Measure Unit": "µg/mL", "Inequality Symbol": "=", "Value": 2}
{"Molecule": "O=C(O)c1cn(C2CC2)c2cc(N3CCN(C(=O)c4cccc(O)c4O)CC3)c(F)cc2c1=O", "Measure Unit": "µg/mL", "Inequality Symbol": "=", "Value": 16}
{"Molecule": "O=C(O)c1cn(C2CC2)c2cc(N3CCN(C(=O)c4ccc(O)c(O)c4)CC3)c(F)cc2c1=O", "Measure Unit": "µg/mL", "Inequality Symbol": "=", "Value": 128}
{"Molecule": "O=C(O)c1cn(C2CC2)c2cc(N3CCN(C(=O)c4cc(=O)c(O)c[nH]4)CC3)c(F)cc2c1=O", "Measure Unit": "µg/mL", "Inequality Symbol": ">", "Value": 128}
{"Molecule": "CC(OC(=O)c1cc(=O)c(O)c[nH]1)OC(=O)N1CCN(c2cc3c(cc2F)c(=O)c(C(=O)O)cn3C2CC2)CC1 (configuration not stated)", "Measure Unit": "µg/mL", "Inequality Symbol": "=", "Value": 2}
{"Molecule": "O=C(O)c1cn(C2CC2)c2cc(N3CCN(C(=O)c4ccc(O)c(O)c4Cl)CC3)c(F)cc2c1=O", "Measure Unit": "µg/mL", "Inequality Symbol": "=", "Value": 128}

----------
System: Burkholderia pseudomallei
Test: Antibacterial activity against Burkholderia pseudomallei BPS2020IRBA002 under muller hinton medium by CLSI protocol based microdilution method
Format: functional
Recorded MIC values for a group of molecules are listed next.

{"Molecule": "CC(C)(O/N=C(\\C(=O)N[C@@H]1C(=O)N2C(C(=O)[O-])=C(C[n+]3ccccc3)CS[C@H]12)c1csc(N)n1)C(=O)O", "System": "Burkholderia pseudomallei", "MIC": "128 µg/mL"}
{"Molecule": "O=C(O)c1cn(C2CC2)c2cc(N3CCN(C(=O)c4cccc(O)c4O)CC3)c(F)cc2c1=O", "System": "Burkholderia pseudomallei", "MIC": "16 µg/mL"}
{"Molecule": "CC(OC(=O)c1cc(=O)c(O)c[nH]1)OC(=O)N1CCN(c2cc3c(cc2F)c(=O)c(C(=O)O)cn3C2CC2)CC1 (configuration not stated)", "System": "Burkholderia pseudomallei", "MIC": "16 µg/mL"}
{"Molecule": "O=C(O)c1cn(C2CC2)c2cc(N3CCN(C(=O)c4ccc(O)c(O)c4Cl)CC3)c(F)cc2c1=O", "System": "Burkholderia pseudomallei", "MIC": "> 128 µg/mL"}
{"Molecule": "CC(OC(=O)c1cccc(O)c1O)OC(=O)N1CCN(c2cc3c(cc2F)c(=O)c(C(=O)O)cn3C2CC2)CC1 (configuration not stated)", "System": "Burkholderia pseudomallei", "MIC": "32 µg/mL"}
{"Molecule": "O=C(O)c1cn(C2CC2)c2cc(N3CCN(C(=O)c4ccc(O)c(O)c4)CC3)c(F)cc2c1=O", "System": "Burkholderia pseudomallei", "MIC": "> 128 µg/mL"}
{"Molecule": "O=C(O)c1cn(C2CC2)c2cc(N3CCN(C(=O)c4cc(=O)c(O)c[nH]4)CC3)c(F)cc2c1=O", "System": "Burkholderia pseudomallei", "MIC": "> 128 µg/mL"}

----------
Assay: Antibacterial activity against Burkholderia pseudomallei BPS2020IRBA005 under 1 uM FeCl3 medium by CLSI protocol based microdilution method
Assay type: functional
Conditions: Burkholderia thailandensis
Recorded Metric: MIC

{"Compound": "O=C(O)c1cn(C2CC2)c2cc(N3CCN(C(=O)c4cc(=O)c(O)c[nH]4)CC3)c(F)cc2c1=O", "Recorded Metric": "MIC", "Value": "> 128 µg/mL"}
{"Compound": "CC(OC(=O)c1cc(=O)c(O)c[nH]1)OC(=O)N1CCN(c2cc3c(cc2F)c(=O)c(C(=O)O)cn3C2CC2)CC1 (stereo not given)", "Recorded Metric": "MIC", "Value": "2 µg/mL"}
{"Compound": "O=C(O)c1cn(C2CC2)c2cc(N3CCN(C(=O)c4ccc(O)c(O)c4Cl)CC3)c(F)cc2c1=O", "Recorded Metric": "MIC", "Value": "> 128 µg/mL"}
{"Compound": "O=C(O)c1cn(C2CC2)c2cc(N3CCN(C(=O)c4ccc(O)c(O)c4)CC3)c(F)cc2c1=O", "Recorded Metric": "MIC", "Value": "> 128 µg/mL"}
{"Compound": "O=C(O)c1cn(C2CC2)c2cc(N3CCN(C(=O)c4cccc(O)c4O)CC3)c(F)cc2c1=O", "Recorded Metric": "MIC", "Value": "8 µg/mL"}

----------
System: Burkholderia thailandensis
Assay: Antibacterial activity against Burkholderia thailandensis E264TS32C47 under succinate minimum medium by CLSI protocol based microdilution method
Format: functional
Overview of recorded MIC for various compounds
Recorded Metric: MIC (µg/mL)

{"Compound": "O=C(O)c1cn(C2CC2)c2cc(N3CCN(C(=O)c4cccc(O)c4O)CC3)c(F)cc2c1=O", "Recorded Metric": "MIC", "Inequality Symbol": "=", "Value": 8}
{"Compound": "CC(OC(=O)c1cc(=O)c(O)c[nH]1)OC(=O)N1CCN(c2cc3c(cc2F)c(=O)c(C(=O)O)cn3C2CC2)CC1 (configuration not stated)", "Recorded Metric": "MIC", "Inequality Symbol": "=", "Value": 8}
{"Compound": "O=C(O)c1cn(C2CC2)c2cc(N3CCN(C(=O)c4cc(=O)c(O)c[nH]4)CC3)c(F)cc2c1=O", "Recorded Metric": "MIC", "Inequality Symbol": ">", "Value": 128}
{"Compound": "O=C(O)c1cn(C2CC2)c2cc(N3CCN(C(=O)c4ccc(O)c(O)c4Cl)CC3)c(F)cc2c1=O", "Recorded Metric": "MIC", "Inequality Symbol": "=", "Value": 128}
{"Compound": "CC(C)(O/N=C(\\C(=O)N[C@@H]1C(=O)N2C(C(=O)[O-])=C(C[n+]3ccccc3)CS[C@H]12)c1csc(N)n1)C(=O)O [CEFTAZIDIME]", "Recorded Metric": "MIC", "Inequality Symbol": "=", "Value": 4}
{"Compound": "CC(OC(=O)c1cccc(O)c1O)OC(=O)N1CCN(c2cc3c(cc2F)c(=O)c(C(=O)O)cn3C2CC2)CC1 (configuration not stated)", "Recorded Metric": "MIC", "Inequality Symbol": "=", "Value": 4}
{"Compound": "O=C(O)c1cn(C2CC2)c2cc(N3CCN(C(=O)c4ccc(O)c(O)c4)CC3)c(F)cc2c1=O", "Recorded Metric": "MIC", "Inequality Symbol": ">", "Value": 128}

----------
Readings of MIC for the listed molecules
Tested on: Burkholderia thailandensis
Assay: Antibacterial activity against Burkholderia thailandensis E264TS32C12 under muller hinton medium by CLSI protocol based microdilution method
Type: functional
Recorded Metric: MIC (µg/mL)

{"Molecule": "CC(C)(O/N=C(\\C(=O)N[C@@H]1C(=O)N2C(C(=O)[O-])=C(C[n+]3ccccc3)CS[C@H]12)c1csc(N)n1)C(=O)O", "Measure Unit": "µg/mL", "Inequality Symbol": "=", "Value": 4}
{"Molecule": "CC(OC(=O)c1cccc(O)c1O)OC(=O)N1CCN(c2cc3c(cc2F)c(=O)c(C(=O)O)cn3C2CC2)CC1 (configuration not stated)", "Measure Unit": "µg/mL", "Inequality Symbol": "=", "Value": 64}
{"Molecule": "O=C(O)c1cn(C2CC2)c2cc(N3CCN(C(=O)c4cccc(O)c4O)CC3)c(F)cc2c1=O", "Measure Unit": "µg/mL", "Inequality Symbol": "=", "Value": 32}
{"Molecule": "O=C(O)c1cn(C2CC2)c2cc(N3CCN(C(=O)c4cc(=O)c(O)c[nH]4)CC3)c(F)cc2c1=O", "Measure Unit": "µg/mL", "Inequality Symbol": ">", "Value": 128}
{"Molecule": "CC(OC(=O)c1cc(=O)c(O)c[nH]1)OC(=O)N1CCN(c2cc3c(cc2F)c(=O)c(C(=O)O)cn3C2CC2)CC1 (configuration not stated)", "Measure Unit": "µg/mL", "Inequality Symbol": "=", "Value": 16}
{"Molecule": "O=C(O)c1cn(C2CC2)c2cc(N3CCN(C(=O)c4ccc(O)c(O)c4)CC3)c(F)cc2c1=O", "Measure Unit": "µg/mL", "Inequality Symbol": ">", "Value": 128}
{"Molecule": "O=C(O)c1cn(C2CC2)c2cc(N3CCN(C(=O)c4ccc(O)c(O)c4Cl)CC3)c(F)cc2c1=O", "Measure Unit": "µg/mL", "Inequality Symbol": ">", "Value": 128}
